Here, each record is paired with measured melting point data.

[ask] So what does the record say about melting point for C=C1CCC2[C@]3(C)COC(C)(c4ccccc4)O[C@@H]3CC[C@]2(C)[C@H]1CC(C1=CCOC1=O)N1CCCC1C(=O)OC (stereo partly shown) [Example 23] ?
[reply] 141 to 143 °C

[ask] Now consider C=C1CCC2[C@]3(C)COC(c4ccccc4)OC3CC[C@]2(C)[C@H]1CC(NCc1ccccc1)C1=CCOC1=O (stereo partly shown) [Example 24] .
[reply] 172 to 173 °C

[ask] Another: C=C1CCC2[C@]3(C)COC(C)(c4ccccc4)OC3CC[C@]2(C)[C@H]1CC(NCc1ccccc1)C1=CCOC1=O (stereo partly shown) [Example 21]
[reply] 149.6 °C

Reference source: patent US6576662B2
